Origin of the recorded values: patent US8470810B2

# study system: human dopamine D3 receptors (Homo sapiens, UniProt P35462)
# Construct: expressed in transfected cells
# Sequence (P35462 whole entry): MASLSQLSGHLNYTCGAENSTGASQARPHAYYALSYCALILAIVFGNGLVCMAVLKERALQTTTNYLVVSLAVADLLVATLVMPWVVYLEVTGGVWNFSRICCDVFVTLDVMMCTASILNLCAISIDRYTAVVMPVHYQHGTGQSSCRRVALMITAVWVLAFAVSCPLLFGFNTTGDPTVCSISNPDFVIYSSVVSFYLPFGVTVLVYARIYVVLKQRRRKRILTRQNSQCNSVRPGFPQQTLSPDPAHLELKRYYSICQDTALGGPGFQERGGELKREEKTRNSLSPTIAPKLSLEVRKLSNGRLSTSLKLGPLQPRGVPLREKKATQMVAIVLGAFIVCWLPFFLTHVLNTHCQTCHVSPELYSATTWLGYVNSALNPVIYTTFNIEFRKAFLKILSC
# assay protocol: Dopamine D3 receptor binding, displacement of [125I]-iodosulpride
# stated conditions: selectivity ratio of the receptor binding constants D2 over D3
observable: Ki(D2)*/Ki(D3)*

{"columns": ["molecule", "test value"],
 "data": [
  ["C=C(C)c1ccc(S(=O)(=O)Nc2ccc([C@@H]3CCN(CCC)C3)cc2)c(F)c1", 26],
  ["CCCN1CC[C@@H](c2ccc(NS(=O)(=O)c3ccc([C@H](C)CF)cc3)cc2)C1", 37],
  ["CCCN1CCC(c2ccc(NS(=O)(=O)c3ccc(C(C)C)cc3)c(F)c2)C1.Cl (centres unmarked)", 13],
  ["CCCN1CC[C@@H](c2ccc(NS(=O)(=O)c3ccc(Br)c(F)c3)cc2)C1", 39],
  ["CCCc1ccc(S(=O)(=O)Nc2ccc([C@@H]3CCN(CCC)C3)cc2)cc1.Cl", 42],
  ["CCCN1CC(c2ccc(NS(=O)(=O)c3ccc(CCF)cc3)cc2)C1", 109],
  ["C=CCN1CC[C@H](c2ccc(NS(=O)(=O)c3ccc(C(C)C)cc3)cc2)C1.Cl", 127],
  ["C=CCN1CC[C@@H](c2ccc(NS(=O)(=O)c3ccc(CCCF)cc3)cc2)C1", 108],
  ["CCCN1CC(c2ccc(NS(=O)(=O)c3ccc(C(C)C)cc3)cn2)C1", 37],
  ["CCCN1CC[C@@H](c2ccc(NS(=O)(=O)c3ccc(CCCF)cc3)cc2)C1", 28],
  ["CCCN1CC[C@@H](c2ccc(NS(=O)(=O)c3ccc(F)c(F)c3)cc2)C1.Cl", 30],
  ["CCCN1CC[C@@H](c2ccc(NS(=O)(=O)c3ccc(C4CCC4)cc3)cc2)C1", 27],
  ["CCCN1CC[C@@H](c2ccc(NS(=O)(=O)c3ccc(C(C)=O)cc3)cc2)C1", 46],
  ["CCCN1CC[C@@H](c2ccc(NS(=O)(=O)c3ccc(Br)cc3F)cc2)C1", 41],
  ["CCCN1CC[C@@H](c2ccc(NS(=O)(=O)c3ccc(OCc4ccccc4)cc3)cc2)C1", 44],
  ["CC(C)c1ccc(S(=O)(=O)Nc2ccc([C@@H]3CCN(C)C3)cc2)cc1", 32],
  ["CCCN1CC[C@@H](c2ccc(NS(=O)(=O)c3ccc(CC(C)C)cc3)cc2)C1.Cl", 24]
]}
